# System: human neuroblastoma cell line SH-SY5H
# assay explanation: MTT cell growth inhibition, SH-SY5H
# Type: cell-based
# condition context: Homo sapiens, Neuroblastoma cell, MTT assay, 72 h, read-out: IC50, growth of tumor cell line
pIC50: −log10 of the molar value.
Entries annotated with measured pIC50

# compound, experimental target, pIC50
records = [
    ("CC[C@]12C=CCN3CC[C@@]4(c5cc([C@@]6(C(=O)OC)C[C@@H]7C[C@@H](C(C)(F)F)CN(Cc8c6[nH]c6ccccc86)C7)c(OC)cc5N(C)[C@H]4[C@@](O)(C(=O)OC)[C@@H]1OC(C)=O)[C@@H]32 [Vinflunine, reference compound]", "human neuroblastoma cell line SH-SY5H", 7.28),
    ("CC[C@]1(O)C[C@@H]2CN(CCc3c([nH]c4ccccc34)[C@@](C(=O)OC)(c3cc4c(cc3OC)N(C)[C@H]3[C@@](O)(C(=O)OC)[C@H](OC(C)=O)[C@]5(CC)C=CCN6CC[C@]43[C@@H]65)C2)C1 [Vinblastine, reference compound]", "human neuroblastoma cell line SH-SY5H", 8.21),
    ("CC[C@]1(O)C[C@H]2CN(CCc3c([nH]c4ccccc34)[C@@](C(=O)OC)(c3cc4c(cc3OC)N(C=O)[C@H]3[C@@](O)(C(=O)OC)[C@H](OC(C)=O)[C@]5(CC)C=CCN6CC[C@]43[C@@H]65)C2)C1 [Vincristine, reference compound]", "human neuroblastoma cell line SH-SY5H", 8.87),
    ("CC[C@]1(O)C[C@@H]2CN(CCc3c([nH]c4ccccc34)[C@@](C(=O)OC)(c3cc4c(cc3OC)N[C@H]3[C@@](O)(C(=O)NN)[C@H](O)[C@]5(CC)C=CCN6CC[C@]43[C@@H]65)C2)C1 [JJ-CCXJ, hydrazinolyzed vincristine]", "human neuroblastoma cell line SH-SY5H", 7.73),
    ("CCC1=C[C@@H]2CN(C1)Cc1c([nH]c3ccccc13)[C@@](C(=O)OC)(c1cc3c(cc1OC)N(C)[C@H]1[C@@](O)(C(=O)OC)[C@H](OC(C)=O)[C@]4(CC)C=CCN5CC[C@]31[C@@H]54)C2 [Vinorelbine, reference compound]", "human neuroblastoma cell line SH-SY5H", 8.32),
    ("CCC1=C[C@@H]2CN(C1)Cc1c([nH]c3ccccc13)[C@@](C(=O)OC)(c1cc3c(cc1OC)N(C)[C@H]1[C@@](O)(C(=O)NN)[C@H](O)[C@]4(CC)C=CCN5CC[C@]31[C@@H]54)C2 [JJ-CCRB, hydrazinolyzed vinorelbine]", "human neuroblastoma cell line SH-SY5H", 7.48),
]

###

# Tested on: human liver cancer cell line HepG2
# assay explanation: MTT cell growth inhibition, HepG2
# Type: cell-based
# condition context: Homo sapiens; HepG2, MTT assay, 72 h; read-out: IC50, growth of tumor cell line
Entries annotated with measured IC50
readout name: IC50 (nM)

# compound, experimental target, readout name, data value
rows = [
    ("CCC1=C[C@@H]2CN(C1)Cc1c([nH]c3ccccc13)[C@@](C(=O)OC)(c1cc3c(cc1OC)N(C)[C@H]1[C@@](O)(C(=O)OC)[C@H](OC(C)=O)[C@]4(CC)C=CCN5CC[C@]31[C@@H]54)C2 [Vinorelbine, reference compound]", "human liver cancer cell line HepG2", "IC50", 8.34),
    ("CC[C@]1(O)C[C@@H]2CN(CCc3c([nH]c4ccccc34)[C@@](C(=O)OC)(c3cc4c(cc3OC)N(C)[C@H]3[C@@](O)(C(=O)NN)[C@H](O)[C@]5(CC)C=CCN6CC[C@]43[C@@H]65)C2)C1 [JJ-CCJ, hydrazinolyzed vinblastine]", "human liver cancer cell line HepG2", "IC50", 12.4),
    ("CC[C@]1(O)C[C@@H]2CN(CCc3c([nH]c4ccccc34)[C@@](C(=O)OC)(c3cc4c(cc3OC)N[C@H]3[C@@](O)(C(=O)NN)[C@H](O)[C@]5(CC)C=CCN6CC[C@]43[C@@H]65)C2)C1 [JJ-CCXJ, hydrazinolyzed vincristine]", "human liver cancer cell line HepG2", "IC50", 12.3),
]
